- assay target: isolated recombinant JAK2 kinase domain (Homo sapiens (Human))
- Sequence (O60674 849-1124): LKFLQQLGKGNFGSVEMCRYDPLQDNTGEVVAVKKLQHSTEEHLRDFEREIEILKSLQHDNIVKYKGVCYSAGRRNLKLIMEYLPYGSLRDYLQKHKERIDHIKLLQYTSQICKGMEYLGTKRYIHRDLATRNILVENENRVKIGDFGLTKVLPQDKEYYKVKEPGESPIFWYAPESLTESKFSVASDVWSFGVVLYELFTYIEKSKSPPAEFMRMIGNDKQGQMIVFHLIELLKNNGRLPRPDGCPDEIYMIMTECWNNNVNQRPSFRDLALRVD
- assay conditions: read-out: JAK2 Ki; isolated recombinant JAK2 kinase domain, 25 μM ATP
pKi: −log10 of the molar value.
endpoint: pKi

Check out these entries, answers already filled in.
{"columns": ["compound", "assay target", "pKi"],
 "data": [
  ["CN1CCC(N(C)C(=O)c2ccc(Nc3nc4c(N5CCC(CC(N)=O)(c6ccc(Cl)cc6)CC5)cccn4n3)cc2)CC1 [Example 1-298]", "isolated recombinant JAK2 kinase domain (Homo sapiens (Human))", 9.35],
  ["CN1CCC(N(C)C(=O)c2ccc(Nc3nc4c(N5CCCC(O)(c6ccccc6)CC5)cccn4n3)cc2)CC1 (centres unmarked) [Example 1-7]", "isolated recombinant JAK2 kinase domain (Homo sapiens (Human))", 8.19],
  ["CN1CCC(N(C)C(=O)c2ccc(Nc3nc4c(N5CC6CC5CN6Cc5ccccc5)cccn4n3)cc2)CC1 (centres unmarked) [Example 1-293]", "isolated recombinant JAK2 kinase domain (Homo sapiens (Human))", 6.96]
]}

A = CN1CCC(N(C)C(=O)c2ccc(Nc3nc4c(N5CCN6CCOC[C@@H]6C5)cccn4n3)cc2)CC1 [Example 1-25]
B = CN1CCC(N(C)C(=O)c2ccc(Nc3nc4c(N5CC=C(c6ccccc6)CC5)cccn4n3)cc2)CC1 [Example 1-4]
C = CN1CCC(N(C)C(=O)c2ccc(Nc3nc4c(N5CCC(C)(NC(=O)c6ccccc6)CC5)cccn4n3)cc2)CC1 [Example 1-302]
D = CN1CCC(OC(=O)c2ccc(Nc3nc4c(N5CCC(O)(c6ccc(Cl)cc6)CC5)cccn4n3)cc2)CC1 [Example 1-178]
INPUT: Exam item: list the entries in increasing order of pKi. Would you mind listing the labels in the order asked for?
OUTPUT: A, B, C, D
